Test system: TK-10 renal
method: NCI-60 one-dose screen, 48 h
recordedConditions: 10 µM unless noted
The panel holds about 83,000 compounds, 20% with a hit somewhere; the sample as a whole holds those more often. The source made the active and inactive calls. The calls were made as follows: active = growth percent below 10; inactive = the rest.
Outcome (select one): 1.0 for active, 0.0 for inactive

As a guide, the following entries are already answered.
CC(O)Cc1c[nH]c(=O)[nH]c1=O (stereo not given)    0.0
CNC(=O)c1cc(Oc2ccc3c(c2)sc2nc(-c4ccc(Cl)c(C(F)(F)F)c4)cn23)ccn1    0.0
O=C1CCCCN1c1ccc(C2=NCCCN2)cc1    0.0
OC1CSSC1Cn1cnc2c(Nc3ccc(OCc4cccc(F)c4)c(Cl)c3)ncnc21 (stereo not given)    1.0
CN(C)c1ccc(CNCCO)cc1    0.0

Challenge: // param item: `C=CN(C(=O)N1CCN(c2cc3c(cc2F)c(=O)c(C(=O)O)cn3C2CC2)CC1)c1nc(-c2ccccc2)cs1` ; yields the recorded call
Response given: 0.0

Challenge: What would you report for `Fc1cccc(-c2nc(-c3c[nH]c4ncccc34)cs2)c1` ?
Response given: 0.0

Challenge: Subsequent entry: COC(=O)c1nc(-c2ccccc2)oc1S(=O)(=O)N1CCCC(C)C1 (stereo not given)
Response given: 0.0

Challenge: Again, but for `Cc1ccccc1N1CCN(C(=S)c2ccccc2)CC1`
Response given: 0.0

Challenge: Item: C=C(C)[C@@H]1CC[C@]2(COC3CCCCO3)CC[C@]3(C)[C@H](CC[C@@H]4[C@@]5(C)C=C(C=O)C(=O)C(C)(C)[C@@H]5CC[C@]43C)[C@@H]12 (stereo not given in full)
Response given: 1.0

###

Tested on: U251 CNS
method: NCI-60 one-dose screen, 48 h (100 = growth as untreated, 0 = no growth, -100 = all killed)
recordedConditions: 10 µM unless noted
This is part of a sample that, as a whole, favours compounds with a hit. Of some 83,000 tested, about 20% had one in any assay.
Recorded growth by entry
Report as a plain number; the unit % is understood.

Worked cases, growth given:
Clc1ccc2nn3c4ccccc4c(OCCN4CCOCC4)nc3c2c1    84.5
CC(C)Cc1nc(Nc2ccccc2)[nH]c(=O)c1C#N    55.8
COc1ccc(Oc2ccc(/C=C/C(=O)c3ccc(OC)c(OC)c3)cc2)cc1    68.9
Cc1cc(C(=O)CCCC(=O)c2cc(C)c(O)c(C)c2)cc(C)c1O    89.6
O=S(Nc1ccccc1)c1ccc(Cl)cc1 (stereo unspecified)    95.1

Here's the next entry for you.
Challenge: For the molecule `O=C1/C(=C/c2ccccn2)SC(=S)N1N1CCOCC1` , what growth is on record?
Response given: 98.1

###

Test system: SF-268 CNS
method: NCI-60 one-dose screen, 48 h (100 = growth as untreated, 0 = no growth, -100 = all killed)
recordedConditions: 10 µM unless noted
About 83,000 compounds went through this panel and 20% of them were active in at least one assay; those are over-represented in the sample as a whole.
Record true whenever growth is at 80% or higher; record false when lower.

C[N+]1=C(/C=C/c2ccccc2Cl)C(C)(C)c2ccccc21    true
CS(=O)(=O)Nc1cc(-c2ccc3ncnc(Nc4ccc(OCc5ccccn5)c(Cl)c4)c3c2)cnc1Cl    false
Nc1nc(C(=O)N/N=C/c2ccc(F)cc2)nn1-c1ccc(S(N)(=O)=O)cc1    true

Challenge: Exam item: decide whether the reported growth for `CC(=O)O[C@H]1CC[C@]2(C)[C@H]3CC=C4[C@@H]5CC(C)(C)CC[C@]5(C(=O)N5CCN(CCC#N)CC5)CC[C@@]4(C)[C@]3(C)CC[C@H]2C1(C)C` is at least 80%.
Response given: false

Challenge: Also need `FC(F)(F)c1[nH]ncc1-c1nc2ccc3[nH]ncc3c2c2c1CCCC2` , thanks.
Response given: false

Challenge: For `Cn1c(=O)c2[nH]c(SC/C(=N/O)c3ccc(Br)cc3)nc2n(C)c1=O` then?
Response given: false

Challenge: Okay, and O=C(CN1C(=O)S/C(=C\C(Cl)=C\c2ccccc2)C1=O)NC1CCS(=O)(=O)C1 (centres undefined) ?
Response given: true

Challenge: Query `c1cc(OCCN2CCCCCC2)ccc1CNc1ccc2nc(CCC3CCCCC3)[nH]c2c1` next
Response given: false

Each recorded value in this set is attributed to PubChem BioAssay (NCI).
